# EXPERIMENT DESCRIPTION: Pharmacokinetics of R14 in rats after i.v. and oral dose
# Format: in vivo, Sprague Dawley rats
# CONDITION SET: male, Sprague Dawley; oral 50 mg/kg, rat plasma, n = 3, mean ± SD; read-out: AUC0→10h
MEASURED PARAMETER: AUC(0-t) (ng·h/mL)

* Cc1ccccc1-n1sc2cc(F)ccc2c1=O [Metabolite R14] | 2080

====

# EXPERIMENT DESCRIPTION: Pharmacokinetics of R14 in rats after i.v. and oral dose
# Format: in vivo, Sprague Dawley rats
# CONDITION SET: male, Sprague Dawley, rat, plasma; oral 50 mg/kg, rats, n = 3, mean ± SD
MEASURED PARAMETER: MRT (h)

* Cc1ccccc1-n1sc2cc(F)ccc2c1=O [Metabolite R14] | 2.82
